- assay.overview: human hepatoma cell viability loss – ATP luminescence, cytotoxicity control for P. falciparum antimalarial project, primary screen (AID 2303);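 note: 0% = DMSO wells and 100% = digitonin-killed cells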
- test.conditions: HepG2 viability, 24-48 h, at 10 µM, hits give high values
Rule: measured inhibition below 10% gets 1; anything equal to or greater than 10% gets -1.

[
  {
    "compound": "CC(C)CN1CCC(COc2ccc3ncn(-c4cc(O[C@H](C)c5ccccc5C(F)(F)F)c(C(N)=O)s4)c3c2)CC1",
    "assigned.class": -1
  },
  {
    "compound": "CSC1=NC(=Nc2ccccc2C)C2(CCC(C(C)(C)C)CC2)N1c1ccccc1Cl (stereo not drawn)",
    "assigned.class": 1
  },
  {
    "compound": "COc1ccc(Nc2nc(NN=Cc3ccc(-c4ccc([N+](=O)[O-])cc4)o3)nc(Nc3ccccc3)n2)cc1",
    "assigned.class": 1
  },
  {
    "compound": "c1ccc2[nH]c(-c3ccc(-c4ccc(CN5CCN(CCN6CCOCC6)CC5)cc4)cc3)nc2c1",
    "assigned.class": -1
  },
  {
    "compound": "CC(CN(C)C)C(=O)Nc1ccc(-c2ccc(-c3nc4ccccc4[nH]3)s2)cc1 (stereo not drawn)",
    "assigned.class": -1
  },
  {
    "compound": "O=C(NCc1ccc(F)cc1)c1cnc(N2CCN(c3ccncc3)CC2)c(Cl)c1",
    "assigned.class": -1
  },
  {
    "compound": "CC(=O)Nc1ccc(CN2CCC(NC(=O)c3ccc(-c4cccc(Cl)c4)s3)CC2)cc1",
    "assigned.class": -1
  },
  {
    "compound": "O=C(Nc1nc2cc(S(=O)(=O)NCCCN3CCOCC3)ccc2n1CCCn1ccnc1)c1ccc(Cl)cc1",
    "assigned.class": 1
  },
  {
    "compound": "Cc1cc(C(=O)NCc2ccc(-c3c(C)noc3C)cc2)n(-c2ccc(Cl)cc2)n1",
    "assigned.class": 1
  },
  {
    "compound": "CCCC(CNC(=O)c1cc2c(Cl)cc(Cl)cc2[nH]1)CNc1cc(=O)c2ccccc2[nH]1 (stereo not drawn)",
    "assigned.class": 1
  },
  {
    "compound": "COc1cc(CCN(C)Cc2ccc(OC)c(OC)c2)ccc1NC(=O)c1cccc2c(=O)c3cccc(F)c3[nH]c12",
    "assigned.class": -1
  },
  {
    "compound": "CCCC(C(=O)OCCNC)(c1ccccc1)c1ccccc1",
    "assigned.class": 1
  },
  {
    "compound": "CCOc1ccc(OCCCON2C(N)=NC(N)=NC2(C)C)cc1",
    "assigned.class": -1
  },
  {
    "compound": "Nc1nc2ccc(S(=O)(=O)Nc3ccc(C(=O)N[C@@H](CCC(=O)O)C(=O)O)c(F)c3)cc2c(=O)[nH]1",
    "assigned.class": -1
  },
  {
    "compound": "c1cn(-c2ccc(CNc3nccc(Nc4ccc(OCCN5CCOCC5)cc4)n3)cc2)cn1",
    "assigned.class": 1
  },
  {
    "compound": "CCN(CC)CC(O)c1cc(-c2ccc(OC)cc2)nc2cc(Cl)ccc12 (stereo not drawn)",
    "assigned.class": -1
  },
  {
    "compound": "Cc1cc(C)c2oc(-c3cccc(NC(=O)c4ccc([N+](=O)[O-])o4)c3C)nc2c1",
    "assigned.class": 1
  },
  {
    "compound": "Cn1cc(C2CCN(CCCCCNC(=O)/C=C/c3ccc(Cl)c(Cl)c3)CC2)c2cc(O)ccc21",
    "assigned.class": -1
  },
  {
    "compound": "Cc1nc2c(=O)sc3ccccc3c2n1Cc1ccccc1",
    "assigned.class": 1
  },
  {
    "compound": "COc1ccc(-c2nonc2NC(=O)c2cccc(Cl)c2)cc1OC",
    "assigned.class": -1
  },
  {
    "compound": "COc1cccc2cc(C(=O)N[C@@H](CC(C)C)C(=O)N[C@H](/C=N/NC(=O)c3ccccc3)Cc3cnc[nH]3)oc12",
    "assigned.class": 1
  }
]
